# Assay Remarks: alamarBlue assay on L. amazonensis promastigotes
# Format: cell-based, Leishmania amazonensis
# Measurement Context: mouse; CC50 J774.A1 / IC50 L. amazonensis promastigotes; read-out: Selectivity Leishmania SI (CC50/IC50)
Observation Type: selectivity ratio

[ask] Tell us which selectivity ratio value is on record for Cc1ccc(C(C)C)c(OC(=O)c2ccc([N+](=O)[O-])cc2)c1 [Derivative 8, thymyl-4-nitrobenzoate]
[reply] > 3.9

[ask] Tell us which selectivity ratio value is on record for COc1ccc(C(=O)Oc2cc(C)ccc2C(C)C)cc1 [Derivative 9, thymyl anysoate]
[reply] > 10.3

[ask] Tell us which selectivity ratio value is on record for Cc1ccc(C(C)C)c(OC(=O)N(C)C)c1 [Derivative 12, thymyl N,N-dimethyl carbamate]
[reply] > 1.3
